Target: Corticotropin-releasing factor receptor 1 (Homo sapiens, UniProt P34998)
Sequence (P34998 whole entry): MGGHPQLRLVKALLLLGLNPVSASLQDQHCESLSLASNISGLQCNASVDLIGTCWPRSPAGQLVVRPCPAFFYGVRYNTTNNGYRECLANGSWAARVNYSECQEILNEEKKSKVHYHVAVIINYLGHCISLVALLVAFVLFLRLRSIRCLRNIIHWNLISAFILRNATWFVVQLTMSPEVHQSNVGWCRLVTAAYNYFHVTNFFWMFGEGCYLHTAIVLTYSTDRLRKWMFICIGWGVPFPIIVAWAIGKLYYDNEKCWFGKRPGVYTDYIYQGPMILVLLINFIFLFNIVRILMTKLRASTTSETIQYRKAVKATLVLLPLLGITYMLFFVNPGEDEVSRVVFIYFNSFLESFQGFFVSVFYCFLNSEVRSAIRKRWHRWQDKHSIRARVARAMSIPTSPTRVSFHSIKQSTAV
Test: Binding affinity for recombinant human CRF1 receptor
pKi: −log10 of the molar value.
Classify by measured pKi: true (1) if it is equal to or exceeds 7, false (0) if it is smaller.

Entry Cc1cc(C)c(C(=O)c2nc(C)nc(N3CCCC3)c2C)c(C)c1 : is its pKi no less than 7?
false (0)

Same read-out for C=CCc1c(C(=O)c2c(C)cc(C)cc2C)nc(C)nc1N(CCC)CC1CC1 ?
true (1)

* * *

This listing pairs molecules with measured Ki.
Target: Corticotropin-releasing factor receptor 1 (Homo sapiens, UniProt P34998)
Experiment: Binding affinity for recombinant human CRF1 receptor
All answers are understood in nM, so give the number only.

                           structure_string  recorded_result
0  COC[C@@H]1CCCN1c1nc(C)nc(C(=O)c2c(C)cc(C)cc2C)c1C              380
1  CCCN(CCO)c1nc(C)nc(C(=O)c2c(C)cc(C)cc2C)c1C              540
2  CCCN(CC1CC1)c1nc(C)nc(Cc2c(OC)cc(OC)cc2OC)c1C               26
3  CCCN(CC1CC1)c1nc(C)nc(C(=O)c2c(C)c(C)c(C)c(C)c2C)c1C             5100
4  CCCN(CC1CC1)c1nc(C)nc(C(=O)c2c(C)cc(C)cc2C)c1CC               55
5  CCCN(CCC)c1nc(C)nc(C(=O)c2c(C)cc(C)cc2C)c1C               58
6  CCCN(CC1CC1)c1cc(C(=O)c2c(OC)cc(OC)cc2OC)nc(C)n1             1100
7  CCC(CC)Nc1nc(C)nc(C(=O)c2c(C)cc(C)cc2C)c1C              220
8  CCCN(CC1CC1)c1nc(C)nc(C(=O)c2c(CC)cc(CC)cc2CC)c1C               13
9  CCCN(CC1CC1)c1nc(C)nc(C(=O)c2c(C)cc(C)cc2C)c1C               15

Look at this molecule and give its reported Ki. CCCN(CC1CC1)c1nc(C)nc(Nc2c(Cl)cc(Cl)cc2Cl)c1Cl
2.7

Thanks! And CCCN(CC1CC1)c1nc(C)nc(C(=O)c2ccccc2C)c1C ?
810

Consider next the molecule CCN(c1ccccc1)c1nc(C)nc(C(=O)c2c(C)cc(C)cc2C)c1C in the same way.
470
